conditionSummary: 303.15 K; 101 kPa
Label Y when viscosity is at or above 400 mPa·s; anything below gets N.

Worked cases, answers included:
CCC#N
N
CCOC(=O)OCC
N
COCCOCCO
N

From here, focus on the item given below.
Q: Is it the case that "CCCCCC(=O)[O-].[NH3+]CCO" has viscosity reaching or exceeding 400 mPa·s?
A: Y

* * *

test: xn = mol fraction of the nth substance listed
conditionSummary: 318.15 K; 101 kPa; x2 = 0.65
testReadout: viscosity (mPa·s)
Express it in mPa·s; write the number only.

Q: # input molecule: CCCCCCCCCCO + CCCO ; wanted: its viscosity
A: 3.044

Q: Request: CCCCCCCCCCO + CCO
A: 2.195

Q: Request: CCCCCCCCCCO + CCCCO
A: 2.676

Q: Request: CCCCCCCCCCO + CO
A: 1.905

* * *

Below, each entry is listed alongside its reported viscosity.
test: xn = mol fraction of the nth substance listed
conditionSummary: 318.15 K; 101 kPa; x2 = 0.3
Express it in mPa·s; write the number only.

CCCCCCCCCCO + CO
3.847
CCCCCCCCCCO + CCCCO
4.088
CCCCCCCCCCO + CCO
3.409

// below: viscosity requested for another molecule
Q: # input molecule: CCCCCCCCCCO + CCCO ; wanted: its viscosity
A: 4.109

* * *

test: xn = mol fraction of the nth substance listed
conditionSummary: 308.15 K; 101 kPa; x2 = 0.45
± gives the uncertainty stated by the source.
testReadout: viscosity

Q: # input molecule: CCCCCCCCCCO + CCCO ; wanted: its viscosity
A: 5.058 ± 0.046 mPa·s

Q: Request: CCCCCCCCCCO + CCCCO
A: 4.734 ± 0.046 mPa·s

Q: Request: CCCCCCCCCCO + CCO
A: 4.065 ± 0.04 mPa·s

Q: Request: CCCCCCCCCCO + CO
A: 3.88 ± 0.035 mPa·s

* * *

Below, each entry is listed alongside its reported log10 of viscosity.
conditionSummary: 293.15 K; 101 kPa
Use the decimal logarithm of viscosity (mPa·s).

Below, 2 compounds whose answers are already recorded.
CCOC(=O)OCC
-0.10
CCCCCCCCCCO
1.12

Q: # input compound: "Cc1ccccc1C" ; wanted: its log10 of viscosity
A: -0.12

Q: Request: "COCCOCCO"
A: 0.59

Q: Request: "CCCCCC(=O)[O-].[NH3+]CCO"
A: 3.41

* * *

conditionSummary: 318.15 K; 101 kPa
± gives the uncertainty stated by the source.
testReadout: viscosity
Write the numeric value and follow it with the unit.

Q: # input molecule: "CCCCCC(=O)[O-].[NH3+]CCO" ; wanted: its viscosity
A: 477.6 ± 43 mPa·s

Q: Request: "CCC#N"
A: 0.36 ± 0.01 mPa·s

Q: Request: "COCCOCCO"
A: 2.159 ± 0.039 mPa·s

Q: Request: "Cc1ccc(Cl)cc1"
A: 0.632 ± 0.018 mPa·s

* * *

test: xn = mol fraction of the nth substance listed
conditionSummary: 318.15 K; 101 kPa; x2 = 0.9
± gives the uncertainty stated by the source.
testReadout: viscosity
Write the numeric value and follow it with the unit.

CCCCCCCCCCO + CCCO
2.89 ± 0.026 mPa·s
CCCCCCCCCCO + CCO
1.141 ± 0.0099 mPa·s
CCCCCCCCCCO + CCCCO
1.804 ± 0.014 mPa·s

// below: viscosity requested for another molecule
Q: # input molecule: CCCCCCCCCCO + CO ; wanted: its viscosity
A: 0.76 ± 0.007 mPa·s
